The values you see were collected from patent US10800754B2.

# System: human ovarian cancer cell A2780
# protocol.details: proliferation inhibitory activity against A2780 cells (CellTiter-Glo)
# Type: cell-based
# experimental.parameters: A2780, 72 h, 1 μM test compound, 3 days of culture, read-out: proliferation inhibitory rate (%) of A2780 cells
attribute.measured: inhibition at 1 µM (%)

compound="Cc1cc(N2CC[C@@](C#N)(C3CC3)C2=O)cc(NC(=O)Cc2cc(-c3cnn(C)c3)cc(C(F)(F)F)c2)n1 [Example 59]" target_of_assay="human ovarian cancer cell A2780" readout_value=51
compound="Cc1ncc(-c2cccc(CC(=O)Nc3cc(N4CC[C@@](C#N)(C5CC5)C4=O)ccn3)c2)s1 [Example 45]" target_of_assay="human ovarian cancer cell A2780" readout_value=76
compound="Cn1cc(-c2ccc(F)c(CC(=O)Nc3cc(N4CC[C@@](C#N)(C5CC5)C4=O)ccn3)c2)cn1 [Example 53]" target_of_assay="human ovarian cancer cell A2780" readout_value=82
compound="CC(C)Cn1cc(-c2cccc(CC(=O)Nc3cc(N4CC[C@@](C#N)(C5CC5)C4=O)ccn3)c2)cn1 [Example 68]" target_of_assay="human ovarian cancer cell A2780" readout_value=51
compound="N#C[C@@]1(C2CC2)CCN(c2ccnc(NC(=O)Cc3cccc(-c4cnn(C5CCCC5)c4)c3)c2)C1=O [Example 66]" target_of_assay="human ovarian cancer cell A2780" readout_value=80
compound="Cc1cc(N2CC[C@@](C#N)(C3CC3)C2=O)cc(NC(=O)Cc2cccc(-c3cn(C)nc3C)c2)n1 [Example 102]" target_of_assay="human ovarian cancer cell A2780" readout_value=89
compound="N#C[C@@]1(C2CC2)CCN(c2ccnc(NC(=O)Cc3cccc(-c4cnn(CC5CCC5)c4)c3)c2)C1=O [Example 72]" target_of_assay="human ovarian cancer cell A2780" readout_value=65
compound="N#C[C@@]1(C2CC2)CCN(c2ccnc(NC(=O)Cc3cccc(-c4cnn(CCO)c4)c3)c2)C1=O [Example 67]" target_of_assay="human ovarian cancer cell A2780" readout_value=77
compound="N#C[C@@]1(C2CC2)CCN(c2ccnc(NC(=O)Cc3cccc(-c4cnn(CC(F)(F)F)c4)c3)c2)C1=O [Example 58]" target_of_assay="human ovarian cancer cell A2780" readout_value=75
compound="N#C[C@@]1(C2CC2)CCN(c2ccnc(NC(=O)Cc3cccc(-c4cnn(C5CCOC5)c4)c3)c2)C1=O (some centres unmarked) [Example 94]" target_of_assay="human ovarian cancer cell A2780" readout_value=74
compound="CCn1cc(-c2cccc(CC(=O)Nc3cc(N4CC[C@@](C#N)(C5CC5)C4=O)ccn3)c2)cn1 [Example 37]" target_of_assay="human ovarian cancer cell A2780" readout_value=90
